System: S. aureus 209P NIHJ-JC1
Assay: agar plate dilution method, MIC against S. aureus 209P NIHJ-JC1
Assay type: cell-based
Details: Staphylococcus aureus; S. aureus 209P NIHJ-JC1; 10^6 CFU/ml, Mueller Hinton agar, 37° C., 16 hours; read-out: Minimum Inhibitory Concentration (MIC)
Measured MIC values are reported for all entries that follow.
Write the answer as a number in µg/mL, unit excluded.

A selection of reference data follows.
| compound | units | experimental.value |
| --- | --- | --- |
| CCON=C(C(=O)NC1C(=O)N2C(C(=O)[O-])=C(CSc3cc[n+](CC(=O)O)cc3)CSC12)c1csc(N)n1 (centres unmarked) [Reference Example A, reference compound] | µg/mL | 0.39 |
| Nc1nc(C(=NOC(C(=O)O)c2ccc(O)c(O)c2)C(=O)NC2C(=O)N3C(C(=O)[O-])=C(CSc4cc[n+](CC(=O)O)cc4)CSC23)cs1 (centres unmarked) | µg/mL | 0.78 |
| Nc1nc(C(=NOCc2ccc(O)c(O)c2)C(=O)NC2C(=O)N3C(C(=O)[O-])=C(CSc4cc[n+](CC(=O)O)cc4)CSC23)cs1 (centres unmarked) | µg/mL | 0.39 |
| Nc1nc(/C(=N/OCc2ccccc2)C(=O)NC2C(=O)N3C(C(=O)[O-])=C(CSc4cc[n+](CC(=O)O)cc4)CSC23)cs1 (centres unmarked) | µg/mL | 0.39 |

Pending compound:
For Nc1nc(/C(=N/Oc2ccccc2)C(=O)NC2C(=O)N3C(C(=O)[O-])=C(CSc4cc[n+](CC(=O)O)cc4)CSC23)cs1 (centres unmarked) , what is its reported MIC?
0.39
